Source: PubChem BioAssay AID1745844

test system: rodent lifetime carcinogenesis bioassay, tumor incidence TD50; experiment: carcinogenic potency in animals, long-term in vivo studies, CPDB compilation (AID 1745844); conditions: rat; strain Fischer 344; males; in drinking water; site: liver; lesion: hepatocellular adenoma + hepatoblastoma + hepatocellular carcinoma; dosed 104 weeks; study length 102 weeks
Property Name: TD50 (mg/kg/day)
Give the quantity in mg/kg/day, number only.

INPUT: Given the entry CC(CO)OC(C)CO (stereo unspecified) (tested in a mixture with another compound) , report its measured TD50.
OUTPUT: 68200

###

tested on: rodent lifetime carcinogenesis bioassay, tumor incidence TD50; assay: carcinogenic potency in animals, long-term in vivo studies, CPDB compilation (AID 1745844); settings: hamster; strain Syrian Golden; females; in drinking water; site: any site (literature study); lesion: several types; types named in the paper; dosed 104 weeks; study length 104 weeks
Property Name: TD50 (mg/kg/day)
Give the quantity in mg/kg/day, number only.

INPUT: Given the entry O=NN1CCOCC1 , report its measured TD50.
OUTPUT: 1.48

###

test system: rodent lifetime carcinogenesis bioassay, tumor incidence TD50; test: carcinogenic potency in animals, long-term in vivo studies, CPDB compilation (AID 1745844); settings: mouse; strain Swiss; females; inhaled; site: mammary gland; lesion: carcinoma; dosed 26 weeks; study length 104 weeks
Property Name: TD50

INPUT: Given the entry C=CCl , report its measured TD50.
OUTPUT: 10.6 mg/kg/day

###

tested on: rodent lifetime carcinogenesis bioassay, tumor incidence TD50; test: carcinogenic potency in animals, long-term in vivo studies, CPDB compilation (AID 1745844); settings: mouse; strain B6C3F1; females; in feed; site: any site (literature study); lesion: malignant tumor; dosed 78 weeks; study length 83 weeks
The source made the active and inactive calls. The rule behind the calls is not given here.
Property Name: TD50

INPUT: Given the entry CC1CC(C)(C)CC(OOC(C)(C)C)(OOC(C)(C)C)C1 (stereo unspecified) , report its measured TD50.
OUTPUT: 9310 mg/kg/day (inactive)

###

tested on: rodent lifetime carcinogenesis bioassay, tumor incidence TD50; experiment: carcinogenic potency in animals, long-term in vivo studies, CPDB compilation (AID 1745844); conditions: monkey; strain Cynomolgus [Macaca fascicularis]; both sexes; by gavage; site: any site (literature study); lesion: malignant tumor; dosed 485 weeks; study length 485 weeks
Property Name: TD50 (mg/kg/day)
Give the quantity in mg/kg/day, number only.

INPUT: Given the entry Cn1c(N)nc2c3cccnc3ccc21 , report its measured TD50.
OUTPUT: 0.374

###

test system: rodent lifetime carcinogenesis bioassay, tumor incidence TD50; assay: carcinogenic potency in animals, long-term in vivo studies, CPDB compilation (AID 1745844); settings: rat; strain F344/DuCrj; females; in drinking water; site: any site (literature study); lesion: one or several types; types not named; dosed 97 weeks; study length 112 weeks
Property Name: TD50 (mg/kg/day)
Give the quantity in mg/kg/day, number only.

INPUT: Given the entry CCOC(=O)N(CC)N=O , report its measured TD50.
OUTPUT: 0.135

###

tested on: rodent lifetime carcinogenesis bioassay, tumor incidence TD50; assay: carcinogenic potency in animals, long-term in vivo studies, CPDB compilation (AID 1745844); details: rat; strain Fischer 344; males; by gavage; site: kidney; lesion: tubule adenoma; dosed 94 weeks; study length 104 weeks
Property Name: TD50

INPUT: Given the entry ClCC(Cl)CCl , report its measured TD50.
OUTPUT: 4.44 mg/kg/day

###

test system: rodent lifetime carcinogenesis bioassay, tumor incidence TD50; assay: carcinogenic potency in animals, long-term in vivo studies, CPDB compilation (AID 1745844); settings: rat; strain Fischer 344; males; in drinking water; site: jejunum; lesion: adenocarcinoma + adenomatous polyp + mucinous cystadenocarcinoma; dosed 97 weeks; study length 97 weeks
Property Name: TD50

INPUT: Given the entry COc1cc(-c2ccc(N=Nc3c(S(=O)(=O)O)cc4cc(S(=O)(=O)O)cc(N)c4c3O)c(OC)c2)ccc1N=Nc1c(S(=O)(=O)O)cc2cc(S(=O)(=O)O)cc(N)c2c1O , report its measured TD50.
OUTPUT: 1630 mg/kg/day

###

tested on: rodent lifetime carcinogenesis bioassay, tumor incidence TD50; experiment: carcinogenic potency in animals, long-term in vivo studies, CPDB compilation (AID 1745844); details: rat; strain Fischer 344; males; inhaled; site: any site (literature study); lesion: several types; types named in the paper; dosed 102 weeks; study length 105 weeks
Property Name: TD50

Compound Structure: OCc1ccco1
Property Name: TD50
Measured Result: 1.46 mg/kg/day

Next molecule, please.
INPUT: Given the entry CCCl , report its measured TD50.
OUTPUT: 1600 mg/kg/day

###

test system: rodent lifetime carcinogenesis bioassay, tumor incidence TD50; assay: carcinogenic potency in animals, long-term in vivo studies, CPDB compilation (AID 1745844); conditions: rat; strain Fischer 344; males; by gavage; site: subcutaneous tissue; lesion: fibrosarcoma + fibroma; dosed 106 weeks; study length 108 weeks
Property Name: TD50

INPUT: What reported TD50 corresponds to Cc1ccc(N=C=O)cc1N=C=O on rodent lifetime carcinogenesis bioassay, tumor incidence TD50?
OUTPUT: 34.1 mg/kg/day

###

test system: rodent lifetime carcinogenesis bioassay, tumor incidence TD50; experiment: carcinogenic potency in animals, long-term in vivo studies, CPDB compilation (AID 1745844); details: mouse; strain Swiss; males; in drinking water; site: lung; lesion: several types; types named in the paper; dosed 112 weeks; study length 112 weeks
Property Name: TD50

INPUT: Given the entry CNN , report its measured TD50.
OUTPUT: 2.51 mg/kg/day

###

system: rodent lifetime carcinogenesis bioassay, tumor incidence TD50; experiment: carcinogenic potency in animals, long-term in vivo studies, CPDB compilation (AID 1745844); conditions: mouse; strain BALB/cJ; males; in feed; site: liver; lesion: hepatoma; dosed 47 weeks; study length 47 weeks
Property Name: TD50

INPUT: Given the entry Clc1cccc(-c2ccc(Cl)c(Cl)c2Cl)c1Cl , report its measured TD50.
OUTPUT: 9.58 mg/kg/day

###

tested on: rodent lifetime carcinogenesis bioassay, tumor incidence TD50; assay: carcinogenic potency in animals, long-term in vivo studies, CPDB compilation (AID 1745844); details: mouse; strain NMRI; males; inhaled; site: kidney; lesion: cystadenoma; dosed 78 weeks; study length 127 weeks
Property Name: TD50

INPUT: Given the entry ClC#CCl , report its measured TD50.
OUTPUT: 0.466 mg/kg/day

###

system: rodent lifetime carcinogenesis bioassay, tumor incidence TD50; assay: carcinogenic potency in animals, long-term in vivo studies, CPDB compilation (AID 1745844); details: rat; strain Wistar; females; in feed; site: kidney; lesion: several types; types named in the paper; dosed 104 weeks; study length 104 weeks
Property Name: TD50

INPUT: Given the entry CC(=O)[O-].CC(=O)[O-].[OH-].[OH-].[OH-].[OH-].[Pb+2].[Pb+2].[Pb+2] , report its measured TD50.
OUTPUT: 339 mg/kg/day

###

tested on: rodent lifetime carcinogenesis bioassay, tumor incidence TD50; experiment: carcinogenic potency in animals, long-term in vivo studies, CPDB compilation (AID 1745844); conditions: rat; strain Fischer 344; females; in drinking water; site: pharynx + tongue; lesion: squamous-cell carcinoma; dosed 60 weeks; study length 60 weeks
Property Name: TD50
Answer format: number, then unit.

INPUT: What reported TD50 corresponds to Cc1cc(-c2ccc(N)c(C)c2)ccc1N on rodent lifetime carcinogenesis bioassay, tumor incidence TD50?
OUTPUT: 11.8 mg/kg/day

###

test system: rodent lifetime carcinogenesis bioassay, tumor incidence TD50; assay: carcinogenic potency in animals, long-term in vivo studies, CPDB compilation (AID 1745844); conditions: mouse; strain B6C3F1; females; in feed; site: liver; lesion: hepatocellular adenoma + hepatocellular carcinoma + neoplastic nodule; dosed 102 weeks; study length 102 weeks
Property Name: TD50 (mg/kg/day)
Give the quantity in mg/kg/day, number only.

INPUT: Given the entry Cc1ccccc1N , report its measured TD50.
OUTPUT: 754

###

test system: rodent lifetime carcinogenesis bioassay, tumor incidence TD50; assay: carcinogenic potency in animals, long-term in vivo studies, CPDB compilation (AID 1745844); conditions: rat; strain Fischer 344; females; in feed; site: liver; lesion: several types; types named in the paper; dosed 104 weeks; study length 128 weeks
Property Name: TD50

INPUT: Given the entry O=NO , report its measured TD50.
OUTPUT: 141 mg/kg/day

###

test system: rodent lifetime carcinogenesis bioassay, tumor incidence TD50; test: carcinogenic potency in animals, long-term in vivo studies, CPDB compilation (AID 1745844); conditions: mouse; strain C57BL/10J; males; i.p.; site: liver; lesion: hemangioma; dosed 35 weeks; study length 59 weeks
Property Name: TD50

INPUT: What reported TD50 corresponds to C=COC(N)=O on rodent lifetime carcinogenesis bioassay, tumor incidence TD50?
OUTPUT: 0.112 mg/kg/day

###

test system: rodent lifetime carcinogenesis bioassay, tumor incidence TD50; assay: carcinogenic potency in animals, long-term in vivo studies, CPDB compilation (AID 1745844); settings: mouse; strain Charles River CD1; males; in drinking water; site: liver; lesion: hemangioma; dosed 104 weeks; study length 104 weeks
Property Name: TD50 (mg/kg/day)
Give the quantity in mg/kg/day, number only.

INPUT: Given the entry CN(C)N , report its measured TD50.
OUTPUT: 339
